Numbers sourced from the supplement of paper PMC8728848.

target: GlcNAc(b1-2)Man(a1-3)[GlcNAc(b1-2)Man(a1-6)]Man(b1-4)GlcNAc(b1-4)GlcNAc; test: glycan array binding signal (z-score within array); higher = stronger binding; conditions: glycan notation: IUPAC condensed, linker removed
Shown is part of a subset that was picked to be rich in the strongest signals.
measuredParameter: glycan array binding signal (z-score)
Write the number on its own, no unit after it.

Input: Using the record for Gal 3C (Homo sapiens), P17931 (protein) YGAPAGPLIVPYNLPLPGGVVPRMLITILGTVKPNANRIALDFQRGNDVAFHFNPRFNENNRRVIVCNTKLDNNWGREERQSVFPFESGKPFKIQVLVEPDHFKVAVNDAHLLQYNHRVKKLNEISKLGISGDIDLTSASYTMI , state its measured glycan array binding signal (z-score).
Output: -0.279

Input: Give glycan array binding signal (z-score) for the following binder: LSECtin (Homo sapiens), Q6UXB4 (protein) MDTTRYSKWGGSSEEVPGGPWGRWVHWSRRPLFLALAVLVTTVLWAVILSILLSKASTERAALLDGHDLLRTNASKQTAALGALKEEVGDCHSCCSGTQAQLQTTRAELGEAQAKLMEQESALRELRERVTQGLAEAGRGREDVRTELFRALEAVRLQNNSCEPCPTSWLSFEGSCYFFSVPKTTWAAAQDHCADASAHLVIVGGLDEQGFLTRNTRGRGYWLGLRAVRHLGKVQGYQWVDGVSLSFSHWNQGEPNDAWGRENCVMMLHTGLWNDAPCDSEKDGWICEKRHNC
Output: 6.75

Input: // fetch glycan array binding signal (z-score) given entry LcH (Lens culinaris), P02870 (protein) TETTSFSITKFSPDQQNLIFQGDGYTGKEGLTLTKVSKETGGRALYSTPIHIWDRDTVNVANFVTNGSQVFRESPNGYNVADGFTFFIAPVDTKPQTGGGYLGVFYNGKEYDKTSQTVAVEFDTFYNAAWDPSNKERHIGIDVNSIKSVNTKSWNLQNGVTSYTLNEVVPLKDVVPEWVRIGFSATTGAEFAAQEVHSWSFNSQLGHTSKS
Output: 1.2
